Entry source: patent US20210292423A1

This listing pairs binders with measured RU of Fab binding at 100 nM.
- system: recombinant huCD3ε/γ protein with Fc-tag (PB01225) (human, UniProt P07766 23-126; P09693 23-116)
- assay.method.text: SPR, CD3-Fc captured, Fab 100 nM
- Protocol: Binding was tested by SPR using a BIAcore3000 instrument run with HBS-EP buffer. Recombinant huCD3 proteins (ε/δ (PB01226), ε/γ (PB01225)) were captured at 10 μl/min via Fc-tag by anti-human Fc capture antibody MAB1302 (Millipore) immobilized on a CM5 sensor chip. Anti-CD3 Fabs were used as analytes at 100 nM with association and dissociation times of 240 sec and 300 sec, respectively at 30 μl/min. After each cycle the surfaces were regenerated by a 2 min pulse of 10 mM glycine buffer pH2.5.
recorded.metric: RU of Fab binding at 100 nM

[
  {
    "binder": "20G6-F3 Fab (Fab, V domains shown, also called BDW-20G6-F3) VH: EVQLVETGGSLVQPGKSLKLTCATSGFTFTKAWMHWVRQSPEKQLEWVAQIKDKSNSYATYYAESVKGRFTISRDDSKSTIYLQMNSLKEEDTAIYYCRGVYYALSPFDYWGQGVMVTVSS VL: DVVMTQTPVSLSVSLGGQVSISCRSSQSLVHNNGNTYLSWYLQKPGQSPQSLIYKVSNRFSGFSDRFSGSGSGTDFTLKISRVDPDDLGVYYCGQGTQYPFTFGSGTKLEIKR",
    "readout.value": "4 RU"
  },
  {
    "binder": "12G3-E8 Fab (Fab, V domains shown) VH: EVRVVETGGSLVQPGKSLKLTCATSGFTFSLAWMHWVRQSPEKKLEWVAQIKDKANNYATYYAESVKGRFTISRDDSKRSVYLQMNRLKEEDTAIYYCRGVYYGFSMTPFDYWGQGVMVTVSS VL: DVAMTQTPVSLSVSLGGQVSISCRSSQSLVHNNGNTYLSWYLQKPGQSPQVLIYKVSNRFSGISDRFSGSGSGADFTLKISRVEPDDLGVYYCGQGTQYPFTFGAGTKLELK",
    "readout.value": "7 RU"
  },
  {
    "binder": "18F5-H10 Fab (Fab, V domains shown, also called BDX-18F5-H10) VH: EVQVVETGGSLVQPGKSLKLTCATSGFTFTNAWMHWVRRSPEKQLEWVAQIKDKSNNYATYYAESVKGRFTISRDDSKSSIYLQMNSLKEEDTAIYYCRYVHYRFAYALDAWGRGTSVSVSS VL: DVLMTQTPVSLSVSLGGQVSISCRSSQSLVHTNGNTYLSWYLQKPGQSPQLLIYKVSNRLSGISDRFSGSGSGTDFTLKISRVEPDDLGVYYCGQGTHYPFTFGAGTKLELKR",
    "readout.value": "7 RU"
  },
  {
    "binder": "13H2-C2 Fab (Fab, V domains shown, also called 13H2-C3) VH: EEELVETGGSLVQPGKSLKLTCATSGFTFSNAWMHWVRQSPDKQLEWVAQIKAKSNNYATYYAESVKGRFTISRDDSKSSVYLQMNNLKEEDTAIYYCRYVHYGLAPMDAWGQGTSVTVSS VL: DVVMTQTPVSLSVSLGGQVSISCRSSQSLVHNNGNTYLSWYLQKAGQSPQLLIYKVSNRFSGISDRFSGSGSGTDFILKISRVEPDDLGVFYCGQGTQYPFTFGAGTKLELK",
    "readout.value": "6 RU"
  },
  {
    "binder": "4E7-C9 Fab (Fab, V domains shown, also called BDX-4E7-C9) VH: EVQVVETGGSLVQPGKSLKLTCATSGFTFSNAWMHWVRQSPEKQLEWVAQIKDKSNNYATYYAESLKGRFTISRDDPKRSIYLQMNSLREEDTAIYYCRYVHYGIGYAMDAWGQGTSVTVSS VL: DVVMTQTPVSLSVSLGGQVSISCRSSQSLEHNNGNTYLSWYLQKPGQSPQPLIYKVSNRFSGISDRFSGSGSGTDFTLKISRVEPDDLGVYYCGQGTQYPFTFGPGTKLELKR",
    "readout.value": "6 RU"
  }
]
